Origin of values: paper PMC11124822

tested on: SK-OV-3; assay: NCI-60 antiproliferative screen (SRB); format: cell-based, human; settings: Homo sapiens; 10 µM single dose, 48 h; SK-OV-3 (Ovarian); read-out: Growth inhibition (%)
# cutoff 10% applies to inhibition at 10 µM; >= gives label 1, < gives label 0

{"compound": "O=C1Nc2ccc(Cl)cc2C1=Cc1ccc(OCc2ccccn2)cc1 (mixture of isomers)", "category-label": "label 1"}
{"compound": "O=C1Nc2ccc(F)cc2C1=Cc1ccc(OCc2cccnc2)cc1 (mixture of isomers)", "category-label": "label 1"}
{"compound": "O=C1Nc2ccc(F)cc2C1=Cc1ccc(OCc2ccncc2)cc1 (mixture of isomers)", "category-label": "label 1"}
{"compound": "O=C1Nc2ccccc2C1=Cc1ccc(OCc2ccccn2)cc1 (mixture of isomers)", "category-label": "label 1"}
{"compound": "O=C1Nc2ccc(F)cc2C1=Cc1ccc(OCc2ccccn2)cc1 (mixture of isomers)", "category-label": "label 0"}
{"compound": "O=C1Nc2cc(Cl)ccc2C1=Cc1ccc(OCc2ccccc2)cc1 (mixture of isomers)", "category-label": "label 0"}
{"compound": "O=C1Nc2ccc(Cl)cc2C1=Cc1ccc(OCc2cccnc2)cc1 (mixture of isomers)", "category-label": "label 0"}

###

system: MDA-MB-231; assay: NCI-60 antiproliferative screen (SRB); format: cell-based, human; conditions: Homo sapiens; 10 µM single dose, 48 h; MDA-MB-231 (Breast); read-out: Growth inhibition (%)
measurement-label: inhibition at 10 µM (%)

{"compound": "O=C1Nc2ccc(F)cc2C1=Cc1ccc(OCc2ccccn2)cc1 (mixture of isomers) [Compound 5f]", "test-value": 14.9}
{"compound": "O=C1Nc2ccc(F)cc2C1=Cc1ccc(OCc2cccnc2)cc1 (mixture of isomers) [Compound 5j]", "test-value": 42}
{"compound": "O=C1Nc2cc(Cl)ccc2C1=Cc1ccc(OCc2ccccc2)cc1 (mixture of isomers) [Compound 5d]", "test-value": -3.65}
{"compound": "O=C1Nc2ccc(F)cc2C1=Cc1ccc(OCc2ccncc2)cc1 (mixture of isomers) [Compound 5n]", "test-value": 20.7}
{"compound": "O=C1Nc2ccc(Cl)cc2C1=Cc1ccc(OCc2ccccc2)cc1 (mixture of isomers) [Compound 5c]", "test-value": -5.3}
{"compound": "O=C1Nc2ccccc2C1=Cc1ccc(OCc2ccncc2)cc1 (mixture of isomers) [Compound 5m]", "test-value": 16.6}
{"compound": "O=C1Nc2ccccc2C1=Cc1ccc(OCc2ccccc2)cc1 (mixture of isomers) [Compound 5a]", "test-value": -10}
{"compound": "O=C1Nc2cc(Cl)ccc2C1=Cc1ccc(OCc2cccnc2)cc1 (mixture of isomers) [Compound 5l]", "test-value": 67.5}

###

system: NCI/ADR-RES; test: NCI-60 antiproliferative screen (SRB); type: cell-based, human; conditions: Homo sapiens; 10 µM single dose, 48 h; NCI/ADR-RES (Ovarian); read-out: Growth inhibition (%)
Categorize each record by its inhibition at 10 µM using low end = under 30%, middle = from 30% up to 60%, high end = 60% and over

{"molecule": "O=C1Nc2ccccc2C1=Cc1ccc(OCc2ccccn2)cc1 (mixture of isomers)", "category-label": "middle"}
{"molecule": "O=C1Nc2cc(Cl)ccc2C1=Cc1ccc(OCc2cccnc2)cc1 (mixture of isomers)", "category-label": "high end"}
{"molecule": "O=C1Nc2ccc(Cl)cc2C1=Cc1ccc(OCc2ccncc2)cc1 (mixture of isomers)", "category-label": "high end"}
{"molecule": "O=C1Nc2ccc(F)cc2C1=Cc1ccc(OCc2ccccc2)cc1 (mixture of isomers)", "category-label": "low end"}
{"molecule": "O=C1Nc2ccc(Cl)cc2C1=Cc1ccc(OCc2cccnc2)cc1 (mixture of isomers)", "category-label": "low end"}
{"molecule": "O=C1Nc2ccc(F)cc2C1=Cc1ccc(OCc2ccccn2)cc1 (mixture of isomers)", "category-label": "low end"}
{"molecule": "O=C1Nc2ccccc2C1=Cc1ccc(OCc2cccnc2)cc1 (mixture of isomers)", "category-label": "middle"}
{"molecule": "O=C1Nc2cc(Cl)ccc2C1=Cc1ccc(OCc2ccccc2)cc1 (mixture of isomers)", "category-label": "low end"}
{"molecule": "O=C1Nc2ccc(Cl)cc2C1=Cc1ccc(OCc2ccccn2)cc1 (mixture of isomers)", "category-label": "high end"}
{"molecule": "O=C1Nc2ccccc2C1=Cc1ccc(OCc2ccccc2)cc1 (mixture of isomers)", "category-label": "low end"}
{"molecule": "O=C1Nc2ccc(F)cc2C1=Cc1ccc(OCc2ccncc2)cc1 (mixture of isomers)", "category-label": "high end"}
{"molecule": "O=C1Nc2ccc(F)cc2C1=Cc1ccc(OCc2cccnc2)cc1 (mixture of isomers)", "category-label": "high end"}
{"molecule": "O=C1Nc2ccc(Cl)cc2C1=Cc1ccc(OCc2ccccc2)cc1 (mixture of isomers)", "category-label": "low end"}
{"molecule": "O=C1Nc2cc(Cl)ccc2C1=Cc1ccc(OCc2ccccn2)cc1 (mixture of isomers)", "category-label": "middle"}
